# Test system: RNA library A (5-nucleotide hairpin library)
# Procedure Details: 2DCS selection with LOGOS analysis
# Type: binding
# Assay Conditions: 5-nucleotide hairpins
# Description: Identification of RNA-binding Small Molecules by 2DCS. […] We have previously validated the secondary structures formed by members of RNA libraries by enzymatic mapping^8, 12, 34. These discrete RNA motifs were selected because they are present in cellular RNAs. […] Identification of Privileged RNA Space by RNA-Seq. […] RNA-seq data were then analyzed by High Throughput Structure-Activity Relationships Through Sequencing (HiT-StARTS)^12 to identify the privileged RNA motifs that bind each small molecule. […]
Endpoint Label: nucleotide preference in position 4 (LOGOS)

For the record Cn1ccc2cc(-c3cc(NCc4nc5ccccc5[nH]4)nc(N)n3)ccc21 , what value of nucleotide preference in position 4 (LOGOS) is listed for RNA library A (5-nucleotide hairpin library)? G>U>>A or C

What measured nucleotide preference in position 4 (LOGOS) is associated with Cn1ccc2cc(-c3cc(NCc4cccc(C(F)(F)F)c4)nc(N)n3)ccc21 on RNA library A (5-nucleotide hairpin library)? G>U>>A or C

====

# pKd listing for each entry below
# Target Under Test: HCV RNA motif 5′UAG3′/3′A_C5′ (SL I)
# Procedure Details: In solution, fluorescence-based binding affinity assay, HCV RNA motifs
// pKd is dimensionless: -log10 of concentration (M)

Solved entries:
Find the measured pKd: item O=C(Nc1cccc(C2=NCCN2)c1)c1ccc(-c2ccc(C(=O)Nc3cccc(C4=NCCN4)c3)cc2)cc1 , target or system HCV RNA motif 5′UAG3′/3′A_C5′ (SL I). 6.34

What is its pKd for HCV RNA motif 5′UAG3′/3′A_C5′ (SL I)? Entry: O=C(Nc1ccc(C2=NCCN2)cc1)c1cc(C(=O)Nc2ccc(C3=NCCN3)cc2)cc(C(=O)Nc2ccc(C3=NCCN3)cc2)c1 6.07

Request - read-out pKd | tested on HCV RNA motif 5′UAG3′/3′A_C5′ (SL I) | molecule O=C(Nc1cc(C2=NCCN2)cc(C2=NCCN2)c1)c1ccc(C(=O)Nc2cc(C3=NCCN3)cc(C3=NCCN3)c2)cc1 5.89

Now consider the entry below.
Which pKd is reported with HCV RNA motif 5′UAG3′/3′A_C5′ (SL I) for this entry: O=C(Nc1cccc(NC(=O)Nc2cc(C(=O)Nc3ccc(C4=NCCN4)cc3)ccc2C(=O)Nc2ccc(C3=NCCN3)cc2)c1)Nc1cc(C(=O)Nc2ccc(C3=NCCN3)cc2)ccc1C(=O)Nc1ccc(C2=NCCN2)cc1 ? 6.34

====

Overview of recorded pIC50 for various compounds
# System: HCV replication, SGR-Neo-RLuc-JFH1-2A replicon cells established in Huh-7.5
# Procedure Details: HCV replication in subgenomic replicon cells (Renilla luciferase)
# Format: cell-based, Hepatitis C virus
# Assay Conditions: Hepatitis C virus, Huh7.5; replicon cells, luciferase activity; read-out: IC50, inhibition of HCV replication
# pIC50 = -log10(concentration in molar units)

Quick check: pIC50 on HCV replication, SGR-Neo-RLuc-JFH1-2A replicon cells established in Huh-7.5, item C[C@@]1(O)[C@H](O)[C@@H](CO)O[C@H]1n1cnc2c(N)ncnc21 [2′-C-methyladenosine, reference compound] ? 5.35

Moving on to another compound below.
I'm curious: which pIC50 was measured for O=C(Nc1cccc(C2=NCCN2)c1)c1ccc(-c2ccc(C(=O)Nc3cccc(C4=NCCN4)c3)cc2)cc1 tested on HCV replication, SGR-Neo-RLuc-JFH1-2A replicon cells established in Huh-7.5? 4.72

====

# Target Under Test: RNA motif 5′GCU3′/3′C_A5′ (from RNA library C)
# Procedure Details: In solution, fluorescence-based binding affinity assay
Endpoint Label: Kd (nM)
Output spec: scalar in nM, unitless text.

Given the entry O=C(Nc1ccc(C2=NCCN2)cc1)c1cc(C(=O)Nc2ccc(C3=NCCN3)cc2)cc(C(=O)Nc2ccc(C3=NCCN3)cc2)c1 , report its measured Kd. 450
